FYI, the data here is from the supplement of paper PMC12592484.

Test system: CAF#2 (primary prostate cancer-associated fibroblasts of iCAF-like type)
Test: drug sensitivity score (DSS2, normalised partial AUC of dose-response, 72 h CellTiter-Glo viability) (DSS (dimensionless)); higher = more sensitive (stronger growth inhibition / cytotoxicity); extreme values may be limits of the assay
measured_attribute: drug sensitivity score
Give the figure by itself; no unit, no explanation.

* CCn1c(-c2nonc2N)nc2c(C#CC(C)(C)O)ncc(OC[C@H]3CCCNC3)c21 (tested concentration range 1-10000 nM) | 3.3

Next, consider the following compound.
Query: Supply measured drug sensitivity score of Cc1c(N)nc([C@H](CC(N)=O)NC[C@H](N)C(N)=O)nc1C(=O)N[C@H](C(=O)N[C@H](C)[C@@H](O)[C@H](C)C(=O)N[C@H](C(=O)NCCc1nc(-c2nc(C(=O)NCCC[S+](C)C)cs2)cs1)[C@@H](C)O)[C@@H](OC1OC(CO)C(O)C(O)C1OC1OC(CO)C(O)C(OC(N)=O)C1O)c1cnc[nH]1 (some centres not stated) [Bleomycin] (tested concentration range 1-10000 nM) in your reply.
Reply: 3.9

---

Tested on: CAF#3 (primary prostate cancer-associated fibroblasts of myCAF-like type)
Experiment: drug sensitivity score (DSS2, normalised partial AUC of dose-response, 72 h CellTiter-Glo viability) (DSS (dimensionless)); higher = more sensitive (stronger growth inhibition / cytotoxicity); extreme values may be limits of the assay
The entries below come with measured drug sensitivity score values attached.
Give the figure by itself; no unit, no explanation.

Reference set, count: 3
• C[C@]12CC[C@H](O)CC1=CC[C@@H]1[C@@H]2CC[C@]2(C)C(c3cccnc3)=CC[C@@H]12 [Abiraterone] (tested concentration range 0.5-5000 nM) = 0
• CCCN(CCC)C(=O)C1=Cc2ccc(-c3ccc(C(=O)N4CCCC4)cc3)cc2N=C(N)C1 [Motolimod] (tested concentration range 1-10000 nM) = 1.7
• CC[C@@H]1CN(C(=O)NCC(F)(F)F)C[C@@H]1c1cnc2cnc3[nH]ccc3n12 [Upadacitinib] (tested concentration range 1-10000 nM) = 0

Query: Supply measured drug sensitivity score of CN(C)Cc1c(C(=O)NCCOc2ccc(C(=O)NO)cc2)oc2ccccc12 [Abexinostat] (tested concentration range 1-10000 nM) in your reply.
Reply: 8.9

---

System: CAF#4 (primary prostate cancer-associated fibroblasts of iCAF-like type)
Experiment: drug sensitivity score (DSS2, normalised partial AUC of dose-response, 72 h CellTiter-Glo viability) (DSS (dimensionless)); higher = more sensitive (stronger growth inhibition / cytotoxicity); extreme values may be limits of the assay
The entries below come with measured drug sensitivity score values attached.
Give the figure by itself; no unit, no explanation.

Reference set, count: 8
• Nc1nc2[nH]cc(CCc3ccc(C(=O)N[C@@H](CCC(=O)O)C(=O)O)cc3)c2c(=O)[nH]1 [Pemetrexed] (tested concentration range 1-10000 nM) = 0
• CC(C)NC[C@@H](C(=O)N1CCN(c2ncnc3c2[C@H](C)C[C@H]3O)CC1)c1ccc(Cl)cc1 [Ipatasertib] (tested concentration range 1-10000 nM) = 0.1
• CNS(=O)(=O)Nc1nccc(Cc2c(C)c3ccc(Oc4ncccn4)cc3oc2=O)c1F (tested concentration range 0.1-1000 nM) = 0
• O=C(O)CC[C@H]1CC[C@@](c2cc(F)ccc2F)(S(=O)(=O)c2ccc(Cl)cc2)CC1 [MK-0752] (tested concentration range 0.1-1000 nM) = 0
• O=C(Nc1nc2cccc(-c3ccc(CN4CCS(=O)(=O)CC4)cc3)n2n1)C1CC1 [Filgotinib] (tested concentration range 1-10000 nM) = 0
• CCOc1cc2ncc(C#N)c(Nc3ccc(OCc4ccccn4)c(Cl)c3)c2cc1NC(=O)/C=C/CN(C)C [Neratinib] (tested concentration range 0.1-1000 nM) = 2.5
• CO[C@@H](C)Cn1c(=O)n(C)c2cnc3ccc(-c4cncc(C(C)(C)O)c4)cc3c21 (tested concentration range 0.2-2500 nM) = 10.7
• COc1cc2c(cc1OCCCN1CCCC1)N=C(N)C21CCC1 [A-366] (tested concentration range 2.5-25000 nM) = 0

Query: Supply measured drug sensitivity score of O=c1[nH]cc(F)c(=O)[nH]1 [Fluorouracil] (tested concentration range 1-10000 nM) in your reply.
Reply: 2

Query: Supply measured drug sensitivity score of CNC(=O)c1ccc(-c2cnc3ncc(Cc4ccc5ncccc5c4)n3n2)cc1F [Capmatinib] (tested concentration range 0.1-1000 nM) in your reply.
Reply: 0

Query: Supply measured drug sensitivity score of CC(C)n1nc(-c2ccc3oc(N)nc3c2)c2c(N)ncnc21 [Sapanisertib] (tested concentration range 0.1-1000 nM) in your reply.
Reply: 17.8

Query: Supply measured drug sensitivity score of Oc1ncnc2[nH]ncc12 [Allopurinol] (tested concentration range 1-10000 nM) in your reply.
Reply: 0

---

Test system: CAF#3
Assay: drug sensitivity score (DSS2, normalised partial AUC of dose-response, 72 h CellTiter-Glo viability) (DSS (dimensionless)); higher = more sensitive (stronger growth inhibition / cytotoxicity); extreme values may be limits of the assay
Group membership follows drug sensitivity score per the scheme low (below 0.6), intermediate (0.6 to below 6), high (6 or more)

Past entries and their recorded results:
- COc1cc([C@@H]2c3cc4c(cc3[C@@H](O[C@@H]3O[C@@H]5CO[C@@H](C)O[C@H]5[C@H](O)[C@H]3O)[C@H]3COC(=O)[C@H]23)OCO4)cc(OC)c1O [Etoposide] (tested concentration range 1-10000 nM): intermediate
- C[C@]12CC[C@@H]3c4ccc(O)cc4C[C@@H](CCCCCCCCC[S+]([O-])CCCC(F)(F)C(F)(F)F)[C@H]3[C@@H]1CC[C@@H]2O (stereo not given in full) [Fulvestrant] (tested concentration range 0.1-1000 nM): low
- O=C(Nc1nc2cccc(-c3ccc(CN4CCS(=O)(=O)CC4)cc3)n2n1)C1CC1 [Filgotinib] (tested concentration range 1-10000 nM): intermediate
- O=c1[nH]cc(F)c(=O)[nH]1 [Fluorouracil] (tested concentration range 1-10000 nM): low
- COc1cccc(OCCCN)c1-c1cc(Nc2cnc(C#N)cn2)n[nH]1 [Prexasertib] (tested concentration range 1-10000 nM): intermediate
- CC1(C)CC[C@]2(NC(=O)C(C)(F)F)CC[C@]3(C)[C@H](C(=O)C=C4[C@@]5(C)C=C(C#N)C(=O)C(C)(C)[C@@H]5CC[C@]43C)[C@@H]2C1 [Omaveloxolone] (tested concentration range 1-10000 nM): intermediate
- O=C1c2c(O)ccc(O)c2C(=O)c2c(NCCNCCO)ccc(NCCNCCO)c21 [Mitoxantrone] (tested concentration range 0.1-1000 nM): intermediate
- Cc1c(-c2c(-c3ccc(F)o3)sc3ncnc(O[C@H](Cc4ccccc4OCc4ccnn4CC(F)(F)F)C(=O)O)c23)ccc(OCCN2CCN(C)CC2)c1Cl (tested concentration range 0.1-1000 nM): low
- NC(=O)N1CCC(CC(=O)N2CCC([C@H]3c4ncc(Br)cc4CCc4cc(Cl)cc(Br)c43)CC2)CC1 [Lonafarnib] (tested concentration range 5-50000 nM): high
- CCCCCOC(=O)Nc1nc(=O)n([C@@H]2O[C@H](C)[C@@H](O)[C@H]2O)cc1F [Capecitabine] (tested concentration range 1-10000 nM): low

Query: Sort CCc1cncnc1N1CCN(Cc2nc3ccc(C(F)(F)F)cc3[nH]2)CC1 (tested concentration range 1-10000 nM) into one of the categories.
Reply: high

Query: Sort CO[C@H]1C[C@@H]2CC[C@@H](C)[C@@](O)(O2)C(=O)C(=O)N2CCCC[C@H]2C(=O)O[C@H]([C@H](C)C[C@@H]2CC[C@@H](OCCO)[C@H](OC)C2)CC(=O)[C@H](C)/C=C(\C)[C@@H](O)[C@@H](OC)C(=O)[C@H](C)C[C@H](C)/C=C/C=C/C=C/1C [Everolimus] (tested concentration range 0-100 nM) into one of the categories.
Reply: high

Query: Sort CCS(=O)(=O)N1CC(CC#N)(n2cc(-c3ncnc4[nH]ccc34)cn2)C1 [Baricitinib] (tested concentration range 0.2-2500 nM) into one of the categories.
Reply: low

Query: Sort CNC(=O)c1ccccc1Sc1ccc2c(/C=C/c3ccccn3)n[nH]c2c1 [Axitinib] (tested concentration range 1-10000 nM) into one of the categories.
Reply: intermediate

Query: Sort Cc1ccc(C(=O)Nc2ccc(Oc3cc4cnn(C)c4cc3-c3cn[nH]c3)c(F)c2)c(=O)n1-c1ccc(F)cc1 [Merestinib] (tested concentration range 0.1-1000 nM) into one of the categories.
Reply: intermediate

Query: Sort CCc1c2c(nc3ccc(O)cc13)-c1cc3c(c(=O)n1C2)COC(=O)[C@]3(O)CC [SN-38] (tested concentration range 1-10000 nM) into one of the categories.
Reply: high

Query: Sort CN1CC[C@H](c2c(O)cc(O)c3c(=O)cc(-c4ccccc4Cl)oc23)[C@H](O)C1 [Alvocidib] (tested concentration range 1-10000 nM) into one of the categories.
Reply: high

Query: Sort CCNC(=O)CCC/C=C\C[C@@H]1[C@@H](/C=C/[C@@H](O)CCc2ccccc2)[C@H](O)C[C@@H]1O [Bimatoprost] (tested concentration range 0.6-5500 nM) into one of the categories.
Reply: low

Query: Sort CCC1=C[C@@H]2CN(C1)Cc1c([nH]c3ccccc13)[C@@](C(=O)OC)(c1cc3c(cc1OC)N(C)[C@H]1[C@@](O)(C(=O)OC)[C@H](OC(C)=O)[C@]4(CC)C=CCN5CC[C@]31[C@@H]54)C2 [Vinorelbine] (tested concentration range 1-10000 nM) into one of the categories.
Reply: high
